# credit: paper PMC7928716

- MEASUREMENT TARGET: T1, AP2 μ2 (160–435) (human, UniProt Q96CW1 160-435)
- T1 sequence: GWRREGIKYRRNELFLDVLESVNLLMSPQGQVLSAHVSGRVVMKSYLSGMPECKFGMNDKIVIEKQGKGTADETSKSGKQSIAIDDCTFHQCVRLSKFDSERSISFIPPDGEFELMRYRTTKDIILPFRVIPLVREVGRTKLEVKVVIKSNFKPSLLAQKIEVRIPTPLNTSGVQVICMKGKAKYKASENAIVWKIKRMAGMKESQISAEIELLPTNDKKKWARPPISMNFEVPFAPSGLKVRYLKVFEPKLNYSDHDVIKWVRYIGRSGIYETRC
- PROTOCOL SUMMARY: fluorescence polarisation
* marks the point of attachment. FITC = O=C1OC2(c3ccc(O)cc3Oc3cc(O)ccc32)c2ccc(NC(=S)*)cc21
EXPERIMENTAL READOUT: Kd (nM)
Numbers only, in nM.

The binder {FITC}-FDTEYQRLEAS-NH2 [FITC-labeled ATG9A(4–14) probe peptide] showed Kd equal to 1640
